These data points were gathered from paper PMC8307404.

TARGET OR TEST SYSTEM: TTBK2 (Homo sapiens, UniProt Q6IQ55)
Sequence (Q6IQ55 whole entry): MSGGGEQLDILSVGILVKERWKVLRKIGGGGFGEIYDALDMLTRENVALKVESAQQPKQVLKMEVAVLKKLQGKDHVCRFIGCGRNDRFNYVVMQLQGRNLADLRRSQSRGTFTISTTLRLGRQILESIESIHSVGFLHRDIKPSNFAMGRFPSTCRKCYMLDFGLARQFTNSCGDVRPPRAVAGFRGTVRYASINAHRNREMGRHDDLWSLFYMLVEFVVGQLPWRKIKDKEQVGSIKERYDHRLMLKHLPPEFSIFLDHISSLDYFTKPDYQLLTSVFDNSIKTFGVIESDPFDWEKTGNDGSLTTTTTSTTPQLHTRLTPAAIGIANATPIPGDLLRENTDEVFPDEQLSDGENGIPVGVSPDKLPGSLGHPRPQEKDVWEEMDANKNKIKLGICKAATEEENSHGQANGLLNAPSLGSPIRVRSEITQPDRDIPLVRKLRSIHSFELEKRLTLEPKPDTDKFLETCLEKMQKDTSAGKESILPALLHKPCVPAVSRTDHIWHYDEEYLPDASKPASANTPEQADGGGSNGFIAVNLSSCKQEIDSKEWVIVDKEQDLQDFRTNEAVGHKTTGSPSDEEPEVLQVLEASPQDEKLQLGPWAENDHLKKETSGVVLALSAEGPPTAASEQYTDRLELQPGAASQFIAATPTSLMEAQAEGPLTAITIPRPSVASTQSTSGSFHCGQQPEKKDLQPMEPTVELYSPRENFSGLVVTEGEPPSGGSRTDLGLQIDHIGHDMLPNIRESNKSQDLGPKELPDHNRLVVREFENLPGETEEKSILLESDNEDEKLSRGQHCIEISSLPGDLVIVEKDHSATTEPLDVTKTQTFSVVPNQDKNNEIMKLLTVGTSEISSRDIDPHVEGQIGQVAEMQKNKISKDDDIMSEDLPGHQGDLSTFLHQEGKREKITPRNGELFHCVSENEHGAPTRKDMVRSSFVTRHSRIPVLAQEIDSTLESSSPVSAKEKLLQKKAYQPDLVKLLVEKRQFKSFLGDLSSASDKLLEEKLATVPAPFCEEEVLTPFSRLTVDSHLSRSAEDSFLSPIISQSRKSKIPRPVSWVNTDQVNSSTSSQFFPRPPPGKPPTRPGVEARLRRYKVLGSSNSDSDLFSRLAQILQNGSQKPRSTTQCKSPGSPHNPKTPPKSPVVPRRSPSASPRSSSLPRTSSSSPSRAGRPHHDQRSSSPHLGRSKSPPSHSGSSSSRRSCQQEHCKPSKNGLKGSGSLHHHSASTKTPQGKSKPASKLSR
TEST DETAILS: Kinase profiling (radiometric filter-binding)
Assay type: biochemical
TEST CONDITIONS: TTBK2, 1 µM inhibitor; read-out: Residual activity, %
Square brackets hold non-standard residues; d marks the D form. Peptide text beside a SMILES is read from it. * marks the point of attachment. X3 = O=C(CCCCCNCc1nc2c(sc3cc(Br)cnc32)c(=O)[nH]1)*
MEASUREMENT LABEL: remaining activity at 1 µM (%)
Give the value in % but do not write % after it.

For the record `N=C(N)NCCC[C@@H](NC(=O)CNC(=O)[C@@H](CCCNC(=N)N)NC(=O)[C@@H](CCCNC(=N)N)NC(=O)CCCCCCCNCc1nc2c(sc3ccc(Br)cc32)c(=O)[nH]1)C(=O)N[C@H](CCCCN)C(N)=O` , what value of remaining activity at 1 µM is listed for TTBK2 (Homo sapiens, UniProt Q6IQ55)? 125

For the record `N=C(N)NCCC[C@@H](NC(=O)CCCCCNC(=O)Cn1cnc2c(I)c(I)c(I)c(I)c21)C(=O)N[C@H](CCCNC(=N)N)C(=O)N[C@H](CCCNC(=N)N)C(=O)N[C@H](CCCNC(=N)N)C(=O)N[C@H](CCCNC(=N)N)C(=O)N[C@H](CCCNC(=N)N)C(=O)N[C@H](CCCCN)C(N)=O` , what value of remaining activity at 1 µM is listed for TTBK2 (Homo sapiens, UniProt Q6IQ55)? 101

For the record `N=C(N)NCCC[C@@H](NC(=O)CNC(=O)[C@@H](CCCNC(=N)N)NC(=O)[C@@H](CCCNC(=N)N)NC(=O)Cn1cc(CNCc2nc3c(sc4ccc(Br)cc43)c(=O)[nH]2)nn1)C(=O)N[C@H](CCCCN)C(N)=O` , what value of remaining activity at 1 µM is listed for TTBK2 (Homo sapiens, UniProt Q6IQ55)? 105

For the record `N=C(N)NCCC[C@@H](NC(=O)CNC(=O)[C@@H](CCCNC(=N)N)NC(=O)[C@@H](CCCNC(=N)N)NC(=O)CCCCCCCNCc1nc2c(sc3cc(Br)cnc32)c(=O)[nH]1)C(=O)N[C@H](CCCCN)C(N)=O` , what value of remaining activity at 1 µM is listed for TTBK2 (Homo sapiens, UniProt Q6IQ55)? 109

For the record N=C(N)NCCC[C@@H](NC(=O)CCCCCNCc1nc2c(sc3cc(Br)cnc32)c(=O)[nH]1)C(=O)N[C@H](CCCNC(=N)N)C(=O)N[C@H](CCCNC(=N)N)C(=O)N[C@H](CCCNC(=N)N)C(=O)N[C@H](CCCNC(=N)N)C(=O)N[C@H](CCCNC(=N)N)C(=O)N[C@H](CCCCN)C(N)=O [ARC-3126, BPTP-Ahx-(D-Arg)6-D-Lys-NH2] (X3-[dR][dR][dR][dR][dR][dR][dK]-NH2) , what value of remaining activity at 1 µM is listed for TTBK2 (Homo sapiens, UniProt Q6IQ55)? 77

* * *

TARGET OR TEST SYSTEM: HIPK1 (Homo sapiens, UniProt Q86Z02)
Sequence (Q86Z02 whole entry): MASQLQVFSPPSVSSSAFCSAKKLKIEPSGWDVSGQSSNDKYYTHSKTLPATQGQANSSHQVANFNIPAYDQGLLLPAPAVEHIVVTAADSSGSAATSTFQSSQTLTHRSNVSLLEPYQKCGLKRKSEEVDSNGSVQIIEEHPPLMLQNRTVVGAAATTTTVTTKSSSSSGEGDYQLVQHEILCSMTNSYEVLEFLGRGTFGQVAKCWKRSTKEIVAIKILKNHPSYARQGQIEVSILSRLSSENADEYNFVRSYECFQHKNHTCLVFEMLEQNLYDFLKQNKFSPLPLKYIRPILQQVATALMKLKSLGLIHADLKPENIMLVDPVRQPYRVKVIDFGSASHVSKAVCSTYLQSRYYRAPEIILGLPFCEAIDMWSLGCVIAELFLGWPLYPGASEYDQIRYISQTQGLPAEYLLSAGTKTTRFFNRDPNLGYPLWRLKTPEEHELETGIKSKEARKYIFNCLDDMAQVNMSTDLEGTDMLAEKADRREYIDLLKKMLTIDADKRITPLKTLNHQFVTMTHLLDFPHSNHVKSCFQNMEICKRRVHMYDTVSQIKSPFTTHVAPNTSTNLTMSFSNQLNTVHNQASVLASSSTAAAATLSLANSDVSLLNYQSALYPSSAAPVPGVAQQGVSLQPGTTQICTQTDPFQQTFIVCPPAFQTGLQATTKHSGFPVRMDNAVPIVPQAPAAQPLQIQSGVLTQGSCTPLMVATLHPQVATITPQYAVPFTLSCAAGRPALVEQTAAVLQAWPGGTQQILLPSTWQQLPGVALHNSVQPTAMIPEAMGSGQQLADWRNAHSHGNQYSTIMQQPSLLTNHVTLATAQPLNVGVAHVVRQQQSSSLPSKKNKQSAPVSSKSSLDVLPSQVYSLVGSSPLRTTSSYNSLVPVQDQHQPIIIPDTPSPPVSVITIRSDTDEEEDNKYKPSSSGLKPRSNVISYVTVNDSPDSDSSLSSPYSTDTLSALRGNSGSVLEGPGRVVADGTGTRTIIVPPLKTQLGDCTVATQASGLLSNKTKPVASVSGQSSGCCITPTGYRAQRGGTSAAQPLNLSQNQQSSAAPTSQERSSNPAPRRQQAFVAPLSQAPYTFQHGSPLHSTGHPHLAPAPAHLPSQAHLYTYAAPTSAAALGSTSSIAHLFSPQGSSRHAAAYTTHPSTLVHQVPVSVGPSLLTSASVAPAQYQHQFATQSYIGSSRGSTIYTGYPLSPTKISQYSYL
TEST DETAILS: Kinase profiling (radiometric filter-binding)
Assay type: biochemical
TEST CONDITIONS: HIPK1, 1 µM inhibitor; read-out: Residual activity, %
Square brackets hold non-standard residues; d marks the D form. Peptide text beside a SMILES is read from it. * marks the point of attachment. X3 = O=C(CCCCCNCc1nc2c(sc3cc(Br)cnc32)c(=O)[nH]1)*
MEASUREMENT LABEL: remaining activity at 1 µM (%)
Give the value in % but do not write % after it.

# input molecule: `N=C(N)NCCC[C@@H](NC(=O)CNC(=O)[C@@H](CCCNC(=N)N)NC(=O)[C@@H](CCCNC(=N)N)NC(=O)CCCCCCCNCc1nc2c(sc3ccc(Br)cc32)c(=O)[nH]1)C(=O)N[C@H](CCCCN)C(N)=O` ; wanted: its remaining activity at 1 µM 60

# input molecule: `N=C(N)NCCC[C@@H](NC(=O)CCCCCNC(=O)Cn1cnc2c(I)c(I)c(I)c(I)c21)C(=O)N[C@H](CCCNC(=N)N)C(=O)N[C@H](CCCNC(=N)N)C(=O)N[C@H](CCCNC(=N)N)C(=O)N[C@H](CCCNC(=N)N)C(=O)N[C@H](CCCNC(=N)N)C(=O)N[C@H](CCCCN)C(N)=O` ; wanted: its remaining activity at 1 µM 61

# input molecule: `N=C(N)NCCC[C@@H](NC(=O)CNC(=O)[C@@H](CCCNC(=N)N)NC(=O)[C@@H](CCCNC(=N)N)NC(=O)Cn1cc(CNCc2nc3c(sc4ccc(Br)cc43)c(=O)[nH]2)nn1)C(=O)N[C@H](CCCCN)C(N)=O` ; wanted: its remaining activity at 1 µM 60

# input molecule: N=C(N)NCCC[C@@H](NC(=O)CCCCCNCc1nc2c(sc3cc(Br)cnc32)c(=O)[nH]1)C(=O)N[C@H](CCCNC(=N)N)C(=O)N[C@H](CCCNC(=N)N)C(=O)N[C@H](CCCNC(=N)N)C(=O)N[C@H](CCCNC(=N)N)C(=O)N[C@H](CCCNC(=N)N)C(=O)N[C@H](CCCCN)C(N)=O [ARC-3126, BPTP-Ahx-(D-Arg)6-D-Lys-NH2] (X3-[dR][dR][dR][dR][dR][dR][dK]-NH2) ; wanted: its remaining activity at 1 µM 95

# input molecule: `N=C(N)NCCC[C@@H](NC(=O)CNC(=O)[C@@H](CCCNC(=N)N)NC(=O)[C@@H](CCCNC(=N)N)NC(=O)CCCCCCCNCc1nc2c(sc3cc(Br)cnc32)c(=O)[nH]1)C(=O)N[C@H](CCCCN)C(N)=O` ; wanted: its remaining activity at 1 µM 111

* * *

TARGET OR TEST SYSTEM: BRSK1 (Homo sapiens, UniProt Q8TDC3)
Sequence (Q8TDC3 1-778): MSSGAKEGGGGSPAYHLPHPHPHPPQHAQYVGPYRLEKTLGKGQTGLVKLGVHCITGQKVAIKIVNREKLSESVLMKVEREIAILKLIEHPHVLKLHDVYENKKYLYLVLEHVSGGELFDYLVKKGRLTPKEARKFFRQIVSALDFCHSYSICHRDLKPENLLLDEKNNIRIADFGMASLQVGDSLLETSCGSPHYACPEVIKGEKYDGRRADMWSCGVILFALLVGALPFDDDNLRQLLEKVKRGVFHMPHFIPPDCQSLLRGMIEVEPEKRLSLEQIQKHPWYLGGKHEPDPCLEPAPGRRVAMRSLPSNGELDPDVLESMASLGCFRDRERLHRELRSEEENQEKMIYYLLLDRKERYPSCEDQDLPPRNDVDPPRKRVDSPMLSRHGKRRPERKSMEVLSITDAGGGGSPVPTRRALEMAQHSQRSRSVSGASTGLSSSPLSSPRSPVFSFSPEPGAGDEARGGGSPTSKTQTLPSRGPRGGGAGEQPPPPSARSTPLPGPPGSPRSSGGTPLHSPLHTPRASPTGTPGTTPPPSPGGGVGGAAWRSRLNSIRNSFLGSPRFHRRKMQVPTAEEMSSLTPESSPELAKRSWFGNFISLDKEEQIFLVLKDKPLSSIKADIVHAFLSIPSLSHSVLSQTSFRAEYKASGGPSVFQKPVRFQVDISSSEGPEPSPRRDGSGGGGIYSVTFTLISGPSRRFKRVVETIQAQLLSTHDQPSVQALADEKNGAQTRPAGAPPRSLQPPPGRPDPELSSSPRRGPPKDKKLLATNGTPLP
TEST DETAILS: Kinase profiling (radiometric filter-binding)
Format: biochemical
TEST CONDITIONS: BRSK1, 1 µM inhibitor; read-out: Residual activity, %
Square brackets hold non-standard residues; d marks the D form. Peptide text beside a SMILES is read from it. * marks the point of attachment. X3 = O=C(CCCCCNCc1nc2c(sc3cc(Br)cnc32)c(=O)[nH]1)*
Kindly state remaining activity at 1 µM for each of the entries shown.
Give the value in % but do not write % after it.

# input compound: `N=C(N)NCCC[C@@H](NC(=O)CCCCCNC(=O)Cn1cnc2c(I)c(I)c(I)c(I)c21)C(=O)N[C@H](CCCNC(=N)N)C(=O)N[C@H](CCCNC(=N)N)C(=O)N[C@H](CCCNC(=N)N)C(=O)N[C@H](CCCNC(=N)N)C(=O)N[C@H](CCCNC(=N)N)C(=O)N[C@H](CCCCN)C(N)=O` ; wanted: its remaining activity at 1 µM 84

# input compound: `N=C(N)NCCC[C@@H](NC(=O)CNC(=O)[C@@H](CCCNC(=N)N)NC(=O)[C@@H](CCCNC(=N)N)NC(=O)CCCCCCCNCc1nc2c(sc3ccc(Br)cc32)c(=O)[nH]1)C(=O)N[C@H](CCCCN)C(N)=O` ; wanted: its remaining activity at 1 µM 101

# input compound: N=C(N)NCCC[C@@H](NC(=O)CCCCCNCc1nc2c(sc3cc(Br)cnc32)c(=O)[nH]1)C(=O)N[C@H](CCCNC(=N)N)C(=O)N[C@H](CCCNC(=N)N)C(=O)N[C@H](CCCNC(=N)N)C(=O)N[C@H](CCCNC(=N)N)C(=O)N[C@H](CCCNC(=N)N)C(=O)N[C@H](CCCCN)C(N)=O [ARC-3126, BPTP-Ahx-(D-Arg)6-D-Lys-NH2] (X3-[dR][dR][dR][dR][dR][dR][dK]-NH2) ; wanted: its remaining activity at 1 µM 50

# input compound: `N=C(N)NCCC[C@@H](NC(=O)CNC(=O)[C@@H](CCCNC(=N)N)NC(=O)[C@@H](CCCNC(=N)N)NC(=O)Cn1cc(CNCc2nc3c(sc4ccc(Br)cc43)c(=O)[nH]2)nn1)C(=O)N[C@H](CCCCN)C(N)=O` ; wanted: its remaining activity at 1 µM 90

# input compound: `N=C(N)NCCC[C@@H](NC(=O)CNC(=O)[C@@H](CCCNC(=N)N)NC(=O)[C@@H](CCCNC(=N)N)NC(=O)CCCCCCCNCc1nc2c(sc3cc(Br)cnc32)c(=O)[nH]1)C(=O)N[C@H](CCCCN)C(N)=O` ; wanted: its remaining activity at 1 µM 107
